Test system: Hs578T
Details: 72 h
The following molecules are shown together with reported EC50, CellTiter-Glo values.
Unit nM implied. Number only.

>  <chemical_structure>
CCS(=O)(=O)c1cccc(-c2cc(C(=O)NC3CCN(C)CC3)c(C)c3[nH]c4ncc(C)cc4c23)c1

>  <scale_unit>
nM

>  <EC50, CellTiter-Glo>
445

$$$$
>  <chemical_structure>
C#Cc1cccc(Nc2ncnc3cc(OC)c(OCCCCCCC(=O)NO)cc23)c1

>  <scale_unit>
nM

>  <EC50, CellTiter-Glo>
1920

$$$$
>  <chemical_structure>
COC(=O)C[C@](O)(CCCC(C)(C)O)C(=O)O[C@@H]1C(OC)=C[C@]23CCCN2CCc2cc4c(cc2[C@H]13)OCO4

>  <scale_unit>
nM

>  <EC50, CellTiter-Glo>
68.3

$$$$

The molecule listed as "COc1c(C)cnc(Cn2cnc3c(Cl)nc(N)nc32)c1C" has a reported EC50, CellTiter-Glo of 756

* * *

Tested on: MCF-10A
Experiment: normalised response (% of control), CellTiter-Glo; higher = more viable cells (100 = DMSO, 0 = benzethonium chloride kill control)
Settings: incubation time: 72 h
assay_endpoint: normalised response
Field note: include the unit after the figure.

>  <molecule>
C[C@@H]1CCN(C(=O)CC#N)C[C@@H]1N(C)c1ncnc2[nH]ccc12 [Tofacitinib] (0.5 nM)

>  <readout_value>
111%

$$$$
>  <molecule>
CC(C)(C)c1cc(NC(=O)Nc2ccc(-c3cn4c(n3)sc3cc(OCCN5CCOCC5)ccc34)cc2)no1 [Quizartinib] (0.1 nM)

>  <readout_value>
101%

$$$$

Could you now consider this next molecule?
The reported normalised response of the molecule Cn1cnc2c(F)c(Nc3ccc(Br)cc3F)c(C(=O)NOCCO)cc21 [MEK-162] (100 nM) was 49%

* * *

System: CAL-120
Experiment: normalised response (% of control), CellTiter-Glo; higher = more viable cells (100 = DMSO, 0 = benzethonium chloride kill control)
Conditions: incubation time: 72 h
normalised response: recorded values
Write the value in % as a bare number.

Example results:
>  <compound>
COc1ncc(-c2ccc3nccc(-c4ccnnc4)c3c2)cc1NS(=O)(=O)c1ccc(F)cc1F (0.1 nM)

>  <tested_target>
CAL-120

>  <normalised response, %>
98.4

$$$$
>  <compound>
Cn1c(=O)c(F)c(Nc2ccc(I)cc2F)c2c(=O)n(C[C@@H](O)CO)cnc21 [TAK-733] (100 nM)

>  <tested_target>
CAL-120

>  <normalised response, %>
76.7

$$$$
>  <compound>
Nc1nccc(-c2c(-c3ccc(F)cc3)ncn2C2CCCCC2)n1 (1000 nM)

>  <tested_target>
CAL-120

>  <normalised response, %>
108

$$$$
>  <compound>
O=C(c1ccc(OCCN2CCCCC2)cc1)c1c(-c2ccc(O)cc2)sc2cc(O)ccc12 [Raloxifene] (1000 nM)

>  <tested_target>
CAL-120

>  <normalised response, %>
96.3

$$$$
>  <compound>
O=c1[nH]c(=O)n([C@H]2C[C@H](O)[C@@H](CO)O2)cc1F [Floxuridine] (10 nM)

>  <tested_target>
CAL-120

>  <normalised response, %>
99.5

$$$$
>  <compound>
C[C@@]1(C(=O)Nc2ccc(F)nc2)CCCN1c1nc(Nc2cc(C3CC3)n[nH]2)c2cccn2n1 (10 nM)

>  <tested_target>
CAL-120

>  <normalised response, %>
91.2

$$$$
>  <compound>
COC1=C2C[C@@H](C)C[C@H](OC)[C@H](O)[C@@H](C)/C=C(\C)[C@H](OC(N)=O)[C@@H](OC)/C=C\C=C(/C)C(=O)NC(=CC1=O)C2=O [Geldanamycin] (1 nM)

>  <tested_target>
CAL-120

>  <normalised response, %>
107

$$$$

Pending compound:
normalised response for CC(C)C[C@H](NC(=O)[C@H](Cc1ccccc1)NC(=O)c1cnccn1)B(O)O [Bortezomib] (1 nM) is 102

From: the supplement of paper PMC4862054
